System: MDAMB157
assay comment: -log10 GI50 (growth inhibition 50%) (-log10(M)); higher = more potent growth inhibition
Parameter -log10 GI50: see the listing below.
Answer with a bare number; do not write a unit.

COc1cccc2c1C(=O)c1c(O)c3c(c(O)c1C2=O)C[C@@](O)(C(=O)CO)C[C@@H]3O[C@H]1C[C@H](N)[C@@H](O)[C@H](C)O1 [Epirubicin] : 6.31

**Q:** In one line, give reported -log10 GI50 of the entry CC(C)Oc1ccc(C(=O)N[C@H](CNC(=O)CN(C)C)Cc2ccc(-c3cn4cccc([C@H](C)O)c4n3)cc2)cc1Cl .
**A:** 7.48

**Q:** In one line, give reported -log10 GI50 of the entry Oc1cc(-c2nc(-c3ccccc3)[nH]c2-c2ccncc2)ccc1Cl .
**A:** 4.88

**Q:** In one line, give reported -log10 GI50 of the entry CNC(=O)c1cc(Oc2ccc(NC(=O)Nc3ccc(Cl)c(C(F)(F)F)c3)cc2)ccn1 .
**A:** 3.78

**Q:** In one line, give reported -log10 GI50 of the entry CC(=O)NCC(=O)N1[C@@H]2CC[C@H]1c1ccc(Nc3ncc(C(F)(F)F)c(NC4CCC4)n3)cc12 .
**A:** 6.1

**Q:** In one line, give reported -log10 GI50 of the entry CO[C@H]1C[C@@H]2CC[C@@H](C)[C@@](O)(O2)C(=O)C(=O)N2CCCC[C@H]2C(=O)O[C@H]([C@H](C)C[C@@H]2CC[C@@H](OCCO)[C@H](OC)C2)CC(=O)[C@H](C)/C=C(\C)[C@@H](O)[C@@H](OC)C(=O)[C@H](C)C[C@H](C)/C=C/C=C/C=C/1C .
**A:** 4.63

**Q:** In one line, give reported -log10 GI50 of the entry CCn1cc(-c2ccnc3[nH]c(-c4cccc(CN(C)C)c4)cc23)c(-c2ccc(NC(=O)N(C)C)cc2)n1 .
**A:** 6.23

**Q:** In one line, give reported -log10 GI50 of the entry CCC1=C[C@@H]2CN(C1)Cc1c([nH]c3ccccc13)[C@@](C(=O)OC)(c1cc3c(cc1OC)N(C)[C@H]1[C@@](O)(C(=O)OC)[C@H](OC(C)=O)[C@]4(CC)C=CCN5CC[C@]31[C@@H]54)C2 .
**A:** 7.89

**Q:** In one line, give reported -log10 GI50 of the entry CC(C(C)N1CC(=O)NC(=O)C1)N1CC(=O)NC(=O)C1 (stereo not given) .
**A:** 5.16

Cited source: the supplement of paper PMC3937590
